Test system: FM3A
assay-protocol: Compound was tested for the inhibition of murine mammary carcinoma FM3A cell proliferation
Assay type: functional, cell-based
setup-conditions: Mus musculus
measurement-name: pIC50
Field pIC50 (float): negative decimal logarithm of the concentration in molar.

C#Cc1nc2c(N)ncnc2n1[C@@H]1O[C@H](CO)[C@@H](O)[C@H]1O | 4.57
C=Cc1cc(=O)[nH]c(=O)n1C1O[C@H](CO)[C@@H](O)[C@H]1O (some centres undefined) | 4.62

Okay, next one:
Task: Requested field: pIC50. Item: C=Cc1nc2c(N)ncnc2n1[C@@H]1O[C@H](CO)[C@@H](O)[C@H]1O
Output: 3.84
